# ASSAY REMARKS: Inhibition of yeast type-3 alpha-glucosidase using p-nitrophenyl-alpha-D-glucopyranoside as substrate after 30 mins
# Design: species or system Saccharomyces cerevisiae
Counter-ions that a name gives are not always drawn.
Each entry below carries its reported IC50.
Answer in µM, number only, no unit symbol.

Worked cases, IC50 given:
CC(=O)c1cccc(-n2cc(C3(O)CCCCC3)nn2)c1
320
OC[C@H]1NC[C@H](O)[C@@H](O)[C@@H]1O [DUVOGLUSTAT HYDROCHLORIDE]
3.49
COC(=O)Cn1cc(-c2ccccc2)nn1
255
O=[N+]([O-])c1ccc(-n2cc(C3(O)CCCCC3)nn2)cc1
320

The record that follows has no IC50 shown yet.
Query block: Return reported IC50; argument: "CC(=O)c1ccccc1-n1cc(-c2ccccc2)nn1"
Result block: 313
